Molecular target: F-actin (rabbit skeletal muscle α-actin filaments) (rabbit, UniProt P68135 1-377)
Test: co-sedimentation; 2 µM F-tractinopt-mCherry fusions incubated with F-actin at increasing concentrations for 5 min at room temperature, 120,000 g for 20 min at 4°C; supernatant and pellet on SDS-PAGE, densitometry; Kd by GraphPad Prism
Conditions: both partners purified
readout-label: pKd
Please treat pKd as minus the base-10 logarithm of the molar concentration.

Q. State the recorded pKd for this entry: APRRSVGELRLLFEARAASAA (domain or fragment, rat inositol 1,4,5-trisphosphate 3-kinase A; numbers count on: the 43-residue F-tractin peptide (peptide residue n = kinase residue n+9); source: E. coli BL21-CodonPlus(DE3)-RIPL, purified (Protino Ni-IDA resin)) [F-tractinopt–mCherry fusion]
A. 5.07
